assay: Toxicity liver stage against HepG2, at 10uM; assay type: cell-based; set-up: test concentration 10 uM, cell line HepG2-A16-CD81EGFP; details: human, HepG2-A16-CD81EGFP cells; read-out: INHIBITION
The label is t for cytotoxicity at 10 µM below -10% and f for cytotoxicity at 10 µM equal to or exceeding -10%.

[Q] Threshold test, cytotoxicity at 10 µM < -10%: CN(C(=O)NCc1ccsc1)C1CCN(c2ccccc2)C1=O (stereo unspecified)
[A] f

[Q] Does COc1ccc2[nH]c(CNc3cc(C4CCNCC4)nc(C)n3)cc2c1 have cytotoxicity at 10 µM strictly under -10%?
[A] t

[Q] Is cytotoxicity at 10 µM of COc1cccc(NC(=O)Cc2c(C)nc3c(c2C)c(=O)[nH]n3C)c1 strictly below -10%?
[A] f

[Q] hey, is cytotoxicity at 10 µM for O=C(C1CCC1)N1C[C@@H]2CN(Cc3ccncc3)C(=O)[C@@H]2C1 lower than -10% or not?
[A] t

[Q] Input CCOCCC(=O)N(C)c1ccc(F)c(Cl)c1 ; condition: cytotoxicity at 10 µM strictly below -10%. Does it hold?
[A] f

[Q] # check: cytotoxicity at 10 µM < -10% for CC1c2ncc(CN3CCN(C)CC3)n2CCN1CC1CC1 (stereo unspecified)
[A] t

====

test: Toxicity liver stage against HepG2, at 10uM; format: cell-based; set-up: test concentration 10 uM, cell line HepG2-A16-CD81EGFP; conditions: human, HepG2-A16-CD81EGFP cells; read-out: INHIBITION
test.readout: cytotoxicity at 10 µM (%)
I only need the number, in %, no unit after it.

[Q] Find the recorded cytotoxicity at 10 µM belonging to O=C(Cn1cc(I)cn1)Nc1cccnc1 and report it.
[A] -2.59

[Q] Tell me the measured cytotoxicity at 10 µM of Cn1cc(CC2CC(=O)N(Cc3ccccc3OC(F)F)C2=O)cn1 (configuration not stated) , please.
[A] 2.21

[Q] Param item = COc1ccccc1-c1cc(C(=O)N(C)C)c2cnn(C)c2n1 ; retrieve measured cytotoxicity at 10 µM.
[A] 10.6

[Q] GET /values?readout=cytotoxicity at 10 µM&item= O=C(Cc1cccc2ccccc12)N1CCC(Nc2cccnn2)CC1
[A] -17.1

[Q] # get_value(readout='cytotoxicity at 10 µM', item= N#CC(NC(=O)c1cccc2c1OCCO2)c1ccc(F)cc1F (configuration not stated) )
[A] -2.61

[Q] // returns reported cytotoxicity at 10 µM for input O=C1COC2(COCCN(c3ccccn3)C2)CN1c1cccc(F)c1 (configuration not stated)
[A] -103

[Q] Query: cytotoxicity at 10 µM; subject: CCc1nc(C2CCCN2C(=O)CCc2cscn2)no1 (configuration not stated)
[A] -3.12

[Q] For the compound Cc1nccn1CCC1CCCCN1Cc1ccncc1 (configuration not stated) , what cytotoxicity at 10 µM is on record?
[A] 35.2

[Q] Any idea what cytotoxicity at 10 µM was measured for COc1ccc(C(=O)NCC(C)(O)CCc2ccccc2)cc1 (configuration not stated) ?
[A] -7.39

[Q] Entry under review: CN(CC(=O)N(C)C1CCN(CC2CCOC2)CC1)c1ccccc1 (configuration not stated) . Reported cytotoxicity at 10 µM?
[A] -9.45

[Q] cytotoxicity at 10 µM for FC(F)(F)c1cccc(N2CCC(NCc3cccnc3)CC2)c1 ?
[A] -64.5

[Q] I am curious: what cytotoxicity at 10 µM value has been reported for O=C(NCCNc1ccccn1)NC1CCOC2(CCCCC2)C1 (configuration not stated) ?
[A] -8.8

[Q] Any idea what its cytotoxicity at 10 µM is? The compound is O=C(CCCOCc1ccccc1)N1CCCC(c2ncc[nH]2)C1 (configuration not stated)
[A] 8.54

[Q] Need cytotoxicity at 10 µM, item COCCC(=O)N[C@H]1CC[C@H](Nc2nccc(-c3ccncc3)n2)C1
[A] 11.5

[Q] Requested field: cytotoxicity at 10 µM. Item: O=C(CO)N1CCC2(CC1)CC(=O)N(Cc1cc(F)cc(F)c1)C2
[A] 9.92

[Q] Could you share which cytotoxicity at 10 µM value was measured for Cc1cc(C)cc(CN2CCN(C(=O)C3CCC3)[C@@H]3CS(=O)(=O)C[C@@H]32)c1 ?
[A] -1.38

[Q] Which cytotoxicity at 10 µM is listed for O=C(N1CCCCC1)N1CCN(c2ccc(Cl)nn2)C(=O)C1 ?
[A] 8.24

[Q] I'd like to know its cytotoxicity at 10 µM. The compound in question is CCn1cc(NC(=O)C2CCC(=O)N2Cc2ccc(C)o2)cn1 (configuration not stated)
[A] -2.92

[Q] Requested field: cytotoxicity at 10 µM. Item: O=C(O)c1ccn(-c2ccc(NC(=O)c3ccccc3Cl)cc2)n1
[A] -140

[Q] I'd like to know its cytotoxicity at 10 µM. The compound in question is Cc1cccc(C(=O)NCc2ccc(CS(N)(=O)=O)cc2)n1
[A] -1.07

[Q] Which measured cytotoxicity at 10 µM value corresponds to Cc1nc(NCC2CC2)nc2c1COCC21CCN(S(=O)(=O)C2CC2)C1 (configuration not stated) ?
[A] -84.8

[Q] Suppose we examine the compound CC(SCCS(C)(=O)=O)c1nc(Cc2ccccc2)no1 (configuration not stated) ; what cytotoxicity at 10 µM value has been reported?
[A] 2.25

[Q] Request the reported cytotoxicity at 10 µM associated with O=C(c1ccnnc1)N1C[C@H]2CN(Cc3cccc(F)c3)C(=O)[C@H]2C1
[A] -77.3

[Q] # query: cytotoxicity at 10 µM of entry CCc1ccccc1CNC(=O)CCc1cnn(C)c1
[A] -3.09

[Q] What cytotoxicity at 10 µM value was documented for this compound, CC(NCc1cn(CCC(N)=O)c2ccccc12)c1nncn1C (configuration not stated) ?
[A] 0.78

[Q] May I ask what cytotoxicity at 10 µM has been recorded for Cc1[nH]ccc1C(=O)N[C@H]1CN(CCO)C[C@@H]1C1CC1 ?
[A] 3.07

[Q] What measured cytotoxicity at 10 µM goes with Cc1cc(CN2CCOC(CNc3cccnn3)C2)no1 (configuration not stated) ?
[A] -18.4

[Q] Data request, read-out cytotoxicity at 10 µM, for CCN(CC)C(=O)N1CCN(C(=O)C2CCCc3[nH]ncc32)CC1 (configuration not stated)
[A] -2.3

[Q] // query cytotoxicity at 10 µM value for entry O=C(C1CC(F)(F)C1)N1C[C@@H]2CN(Cc3ccsc3)CCO[C@@H]2C1
[A] -93.5

[Q] Query: cytotoxicity at 10 µM; subject: Clc1cccc(C[C@@H]2NCCC[C@@H]2Nc2ccccc2)c1
[A] 89.3

[Q] Look at this compound and give its reported cytotoxicity at 10 µM. O=C1CCCCN1Cc1cccc(OC(F)F)c1
[A] 3.17

[Q] Entry CN(C)C(=O)CNC(=O)c1cc2ccccc2nc1N1CCCC1 : reported cytotoxicity at 10 µM = ?
[A] -6.18

[Q] May I ask what cytotoxicity at 10 µM has been recorded for Cn1cnnc1SCc1cc2c(cc1Cl)OCO2 ?
[A] 7.03

[Q] So what's the measured cytotoxicity at 10 µM for this one? Cc1cc(C)n(C2CCN(S(=O)(=O)N3CCOCC3)CC2)n1
[A] 3.88

[Q] Return reported cytotoxicity at 10 µM; argument: CCn1ccnc1CN(C)C1CCCN(Cc2ccccc2F)C1 (configuration not stated)
[A] 4.77

[Q] # input compound: Cc1nn(CC(=O)Nc2cccc(F)c2)c(N)c1C#N ; wanted: its cytotoxicity at 10 µM
[A] 17.9

[Q] Query (compound): COCCOCC(=O)Nc1ccc(F)cc1C ; field requested: cytotoxicity at 10 µM
[A] 12.8

[Q] Any idea what cytotoxicity at 10 µM was measured for CCN(Cc1cnn(C)c1)C[C@H]1CC[C@@H](Cc2ccc(C#N)cc2)O1 ?
[A] 5.78

[Q] Which cytotoxicity at 10 µM value belongs to Cn1ccnc1CCNS(=O)(=O)c1ccc(Br)cc1 ?
[A] 3.32

[Q] // lookup cytotoxicity at 10 µM for Cc1cc(C)n(CC2CCCCN2C(=O)c2sccc2C#N)n1 (configuration not stated)
[A] -0.497

[Q] Find the recorded cytotoxicity at 10 µM belonging to Cn1ccnc1CN1CCCC2(CCN(CC3CCCO3)CC2)C1 (configuration not stated) and report it.
[A] -76.7

[Q] Name the reported cytotoxicity at 10 µM value associated with the compound c1cc(CN2CCC(c3nnc4n3CCCCC4)CC2)c2c(c1)OCO2
[A] -3.14

[Q] Would you kindly share the measured cytotoxicity at 10 µM for Cn1cc(C2CCCN2C(=O)CS(=O)(=O)C2CCCC2)cn1 (configuration not stated) ?
[A] -4.8

[Q] Param item = CC[S+](CC)[c-]1c(=O)[nH]c(=O)n(Cc2ccc(F)cc2)c1=O ; retrieve measured cytotoxicity at 10 µM.
[A] 4.12

[Q] Can you share its cytotoxicity at 10 µM? I mean this compound: Cc1cnn(CCCNC(=O)C2CCCCN2Cc2ccncc2)c1 (configuration not stated)
[A] -7.85

[Q] Reported cytotoxicity at 10 µM for CCn1cc(S(=O)(=O)Nc2nc3c(s2)CCCC3)cn1 : what is it?
[A] 6.33

[Q] Given the compound O=C(O)c1nnn(-c2cccc(C(F)(F)F)c2)c1-c1ccncc1 , what is its reported cytotoxicity at 10 µM?
[A] 4.76
